In this section, each of the compounds is paired with its reported pIC50.
Target: Human KIF18A (amino acid sequence 1-417) (Homo sapiens)
Sequence (Q8NI77 1-417): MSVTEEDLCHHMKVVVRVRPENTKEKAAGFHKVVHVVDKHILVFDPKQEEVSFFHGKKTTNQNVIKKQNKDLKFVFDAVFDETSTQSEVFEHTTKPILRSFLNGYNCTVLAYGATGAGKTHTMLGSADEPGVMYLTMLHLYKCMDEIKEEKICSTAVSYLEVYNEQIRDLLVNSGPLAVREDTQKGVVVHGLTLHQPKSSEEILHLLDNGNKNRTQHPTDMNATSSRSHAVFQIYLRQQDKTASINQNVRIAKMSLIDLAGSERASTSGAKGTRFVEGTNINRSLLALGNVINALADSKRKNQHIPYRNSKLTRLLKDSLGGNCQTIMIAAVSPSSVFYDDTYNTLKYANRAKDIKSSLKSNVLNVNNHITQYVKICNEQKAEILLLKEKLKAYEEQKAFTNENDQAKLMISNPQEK
Test: Enzymatic activity test (ADP-Glo, microtubule-stimulated KIF18A ATPase)
Details: 60 μg/mL microtubules, 25 μM ATP, 2.5 nM KIF18A protein, 120 min at ambient temperature, read-out: KIF18A_nM
pIC50: −log10 of the molar value.

[
  {
    "cpd smiles": "O=C(Nc1cc2ncnn2c(N2CCC(F)(F)CC2)n1)c1cc(F)c(NS(=O)(=O)CCO)cc1N1CCC2(CC1)CC2",
    "readout qualifier": "=",
    "pIC50": 8.30
  },
  {
    "cpd smiles": "O=C(Nc1cc2cccnc2c(N2CCC(F)(F)CC2)c1Cl)c1ccc(NS(=O)(=O)CCO)cc1N1CCC2(CC1)CC2",
    "readout qualifier": "<",
    "pIC50": 5.52
  },
  {
    "cpd smiles": "O=C(Nc1cc(N2CCC(F)(F)CC2)c2occc2c1)c1ccc(NS(=O)(=O)CCO)cc1N1CCC2(CC1)CC2",
    "readout qualifier": "=",
    "pIC50": 7.57
  },
  {
    "cpd smiles": "C[C@@H](CO)S(=O)(=O)Nc1ccc(C(=O)Nc2cc3cccnc3c(N3CCC(F)(F)CC3)n2)c(N2CCC3(CC2)CC3)c1",
    "readout qualifier": "=",
    "pIC50": 6.82
  },
  {
    "cpd smiles": "Nc1nc2c(N3CCC(F)(F)CC3)c(F)c(NC(=O)c3ccc(NS(=O)(=O)CCO)cc3N3CCC4(CC3)CC4)cc2s1",
    "readout qualifier": "=",
    "pIC50": 6.67
  },
  {
    "cpd smiles": "O=C(Nc1cc(N2CCC(F)(F)CC2)c2ncsc2c1)c1ccc(NS(=O)(=O)CCO)cc1N1CCC2(CC1)CC2",
    "readout qualifier": "=",
    "pIC50": 7.42
  },
  {
    "cpd smiles": "O=C(Nc1cc(N2CCC(F)(F)CC2)c2nnccc2c1)c1ccc(NS(=O)(=O)CCO)cc1N1CCC2(CC1)CC2",
    "readout qualifier": "=",
    "pIC50": 7.48
  },
  {
    "cpd smiles": "O=C(Nc1cn2ccnc2c(N2CCC(F)(F)CC2)n1)c1ccc(NS(=O)(=O)CCO)cc1N1CCC2(CC1)CC2",
    "readout qualifier": "=",
    "pIC50": 7.57
  },
  {
    "cpd smiles": "O=C(Nc1cc2cccnc2c(N2CCC(F)(F)CC2)c1C(F)(F)F)c1ccc(NS(=O)(=O)CCO)cc1N1CCC2(CC1)CC2",
    "readout qualifier": "<",
    "pIC50": 5.52
  },
  {
    "cpd smiles": "O=C(Nc1cc(N2CCC(F)(F)CC2)c2cnccc2c1)c1ccc(NS(=O)(=O)CCO)cc1N1CCC2(CC1)CC2",
    "readout qualifier": "=",
    "pIC50": 7.46
  },
  {
    "cpd smiles": "O=C(Nc1cc2ccoc2c(N2CCC(F)(F)CC2)n1)c1ccc(NS(=O)(=O)CCO)cc1N1CCC2(CC1)CC2",
    "readout qualifier": "=",
    "pIC50": 7.55
  },
  {
    "cpd smiles": "Cn1ccc2c(N3CCC(F)(F)CC3)nc(NC(=O)c3ccc(NS(=O)(=O)CCO)cc3N3CCC4(CC3)CC4)cc21",
    "readout qualifier": "=",
    "pIC50": 6.88
  },
  {
    "cpd smiles": "C[C@H](CO)S(=O)(=O)Nc1ccc(C(=O)Nc2cc3cccnc3c(N3CCC(F)(F)CC3)n2)c(N2CCC3(CC2)CC3)c1",
    "readout qualifier": "=",
    "pIC50": 6.82
  },
  {
    "cpd smiles": "C[C@@H]1CN(c2nc(NC(=O)c3ccc(NS(=O)(=O)CCO)cc3N3CCC4(CC3)CC4)cc3cccnc23)CCO1",
    "readout qualifier": "=",
    "pIC50": 7.41
  }
]
